system: eIF2α phosphorylation (eIF2•GTP•Met-tRNAi ternary complex; HRI activation); assay: surrogate dual luciferase eIF2α phosphorylation (ternary complex) assay; format: cell-based, human; details: 15 μM compound
Experimental Endpoint: Emax (F/R)

Given item O=C(Nc1ccc(I)cc1)N[C@H]1CC[C@H](OCc2c(F)cccc2F)CC1 , the value recorded as its Emax (F/R) is 0.82

Given item COc1ccccc1NC(=O)N[C@H]1CC[C@H](OCc2c(F)cccc2F)CC1 , the value recorded as its Emax (F/R) is 0.88

Given item O=C(Nc1ccc(OC(F)(F)F)cc1)N[C@H]1CC[C@H](OCc2c(F)cccc2F)CC1 , the value recorded as its Emax (F/R) is 0.80

Given item O=C(Nc1ccccc1[N+](=O)[O-])N[C@H]1CC[C@H](OCc2c(F)cccc2F)CC1 , the value recorded as its Emax (F/R) is 0.90
